System: Acinetobacter baumannii
protocol.summary: MIC, sole activity (no second agent)
Format: cell-based
condition.set: in the absence of Rifampicin; strain ATCC13424
Where a name gives a salt, the structure may show the parent alone. Bridge positions count the residues as written; N and C are the ends. Square brackets hold non-standard residues; d marks the D form. Peptide text beside a SMILES is read from it. * marks the point of attachment. ξ: configuration not given here. ξHexahydromandeloyl = O=C(C(O)C1CCCCC1)*; ξβ3hGly(cHex) = NC(CC(=O)*)C1CCCCC1; Thr(3ξ) = CC(O)[C@H](N)C(=O)O; Dab = NCC[C@H](N)C(=O)O; Dap = NC[C@H](N)C(=O)O; X4 = NC1CCCC1C(=O)*
experimental.endpoint: MIC A. baumannii ATCC13424

>  <molecule>
CC(C)C[C@@H]1NC(=O)[C@@H](Cc2ccccc2)NC(=O)[C@H](CCN)NC(=O)[C@@H](NC(=O)[C@H](CN)NC(=O)[C@@H](NC(=O)C2CCCC2N)C(C)O)CCNC(=O)[C@H](C(C)O)NC(=O)[C@H](CCN)NC(=O)[C@H](CCN)NC1=O (some centres unmarked) [Example 43, TFA salt] (X4-[Thr(3ξ)][Dap][Dab][Dab][dF]L[Dab][Dab][Thr(3ξ)]; lactam 3-C)

>  <target.entity>
Acinetobacter baumannii

>  <experimental.endpoint>
MIC A. baumannii ATCC13424

>  <reported.result>
0.25 micrograms/mL

$$$$
>  <molecule>
CC(C)C[C@@H]1NC(=O)[C@@H](Cc2ccccc2)NC(=O)[C@H](CCN)NC(=O)[C@@H](NC(=O)[C@H](CN)NC(=O)[C@@H](NC(=O)C(O)C2CCCCC2)C(C)O)CCNC(=O)[C@H](C(C)O)NC(=O)[C@H](CCN)NC(=O)[C@H](CCN)NC1=O (some centres unmarked) [Example 45, TFA salt] (ξHexahydromandeloyl-[Thr(3ξ)][Dap][Dab][Dab][dF]L[Dab][Dab][Thr(3ξ)]; lactam 3-C)

>  <target.entity>
Acinetobacter baumannii

>  <experimental.endpoint>
MIC A. baumannii ATCC13424

>  <reported.result>
1 micrograms/mL

$$$$
>  <molecule>
CC(C)C[C@H]1NC(=O)[C@H](CCN)NC(=O)[C@@H](NC(=O)[C@H](CCN)NC(=O)[C@@H](NC(=O)CC(N)C2CCCCC2)C(C)O)CCNC(=O)[C@H](C(C)O)NC(=O)[C@H](CCN)NC(=O)[C@H](CCN)NC(=O)[C@H](C(C)O)NC1=O (stereo partly drawn) [Example 50] ({ξβ3hGly(cHex)}-[Thr(3ξ)][Dab][Dab][Dab][dL][Thr(3ξ)][Dab][Dab][Thr(3ξ)]; lactam 3-C)

>  <target.entity>
Acinetobacter baumannii

>  <experimental.endpoint>
MIC A. baumannii ATCC13424

>  <reported.result>
4 micrograms/mL

$$$$
>  <molecule>
CC(C)C[C@@H]1NC(=O)[C@@H](Cc2ccccc2)NC(=O)[C@H](CCN)NC(=O)[C@@H](NC(=O)[C@H](CCN)NC(=O)[C@@H](NC(=O)C2CCCC2N)C(C)O)CCNC(=O)[C@H](C(C)O)NC(=O)[C@H](CCN)NC(=O)[C@H](CCN)NC1=O (some centres unmarked) [Example 7] (X4-[Thr(3ξ)][Dab][Dab][Dab][dF]L[Dab][Dab][Thr(3ξ)]; lactam 3-C)

>  <target.entity>
Acinetobacter baumannii

>  <experimental.endpoint>
MIC A. baumannii ATCC13424

>  <reported.result>
2 micrograms/mL

$$$$
>  <molecule>
CC(C)C[C@@H]1NC(=O)[C@@H](Cc2ccccc2)NC(=O)[C@H](CCN)NC(=O)[C@@H](NC(=O)[C@H](CCN)NC(=O)[C@@H](NC(=O)[C@H](CCN)NC(=O)CC(N)C2CCCCC2)C(C)O)CCNC(=O)[C@H](C(C)O)NC(=O)[C@H](CCN)NC(=O)[C@H](CCN)NC1=O (mixture of isomers) [Example 39, trifluoroacetate salt]

>  <target.entity>
Acinetobacter baumannii

>  <experimental.endpoint>
MIC A. baumannii ATCC13424

>  <reported.result>
0.125 micrograms/mL

$$$$
